Sourced from the supplement of paper PMC10567573

Assay: protein stability index of a GFP-peptide fusion (GPS, HEK-293T) (PSI 1-6); higher = more stable;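 also: 24-mer peptide tiles fused after GFP, lentivirally expressed, FACS-sorted into six equal bins by GFP/DsRed ratio, decoded by Illumina sequencing, PSI is the read-weighted mean bin number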
Conditions: treatment: DMSO; c terminus: a fixed tail appended
Parameter protein stability index: see the listing below.
Respond with the number and no other words.

Worked examples follow.
ESYFTTRTYGEPESAGPSRAVRQS [EMD] | 4.62
AIPTKKSLPSPSSSGHQNRRFSSE [FBF1] | 4.82
AFTMEQVRTLEGVFQHHQYLSPLE [VENTX] | 2.83

# input Tell me measured protein stability index for TSANKITLVSSGSGTMGAAKVTGE [FLOT1] please.
# output 4.63

# input Tell me measured protein stability index for AGSHQYPGRGVYLLKFDNSYSLWR [ACBD3] please.
# output 2.43

# input Tell me measured protein stability index for HPAATALHAELCQAGSSQGLSLCQ [LPCAT4] please.
# output 4.22

# input Tell me measured protein stability index for NLDEEMKKIRQVIRKYNYVAMDTE [CNOT7] please.
# output 3.47

# input Tell me measured protein stability index for RLFLDGEEEKEWAFEESKIDEHHF [AASDHPPT] please.
# output 4.37

# input Tell me measured protein stability index for AQVRKLELERAQHELLLGSLQQQH [FBF1] please.
# output 3.62

# input Tell me measured protein stability index for SPEWDTVTPEAKNLINQMLTINPA [CAMK2B] please.
# output 3.84

---

Experiment: protein stability index of a GFP-peptide fusion (GPS, HEK-293T) (PSI 1-6); higher = more stable
Conditions: treatment: DMSO; c terminus: a fixed tail appended
# protein stability index >= 3 gives criterion met, anything below gives criterion not met

Answered cases to consult:
EDGKRCVAVDYCASENHGCEHECV [MATN2] | criterion met
VSLGLGQPWHAVMDIESLSVFTEP [FBXO33] | criterion not met
TEGPSLLNQKGTAVETEGSGSRHP [SLC2A12] | criterion met
FRVVDCDQFTQVFLESQGIELNPP [EFHC1] | criterion not met
LQRLKEQQFVIAGVLVEDSNNHHL [ZBED1] | criterion not met
MHVACQHGQENIVRILLRRGVDVS [RIPK4] | criterion not met
REAATKHSKASLPTGEGSISHEEQ [CHCHD6] | criterion met
VYHIECFRCSVCSRQLLPGDEFSL [ISL2] | criterion not met

# input Does KVLQLTVRCEALTGELETLKERCA [CCDC89] have a reported protein stability index of at least 3?
# output criterion not met

# input Does NIGDSSSGLIQTVFISSYMVLAPV [SPNS1] have a reported protein stability index of at least 3?
# output criterion met

---

Assay: protein stability index of a GFP-peptide fusion (GPS, HEK-293T) (PSI 1-6); higher = more stable
Details: treatment: DMSO; c terminus: a fixed tail appended
VALUE_KIND: protein stability index
Respond with the number and no other words.

LVDMDMADYSAALDPAYTTLEFEN [HNF4A] | 4.24

# input Tell me measured protein stability index for QLSRLNITYPMLFKLTNKNSDRMT [UFD1] please.
# output 2.33

# input Tell me measured protein stability index for FWLQNSSPSSDRVSAIIWEGNECK [PHTF1] please.
# output 2.41

# input Tell me measured protein stability index for LPTLVPWYFWGETFQNSVFVATFL [SCD] please.
# output 3.15

# input Tell me measured protein stability index for AISSPTVSRLTDTTKFTGSHKERF [TPPP] please.
# output 4.17

# input Tell me measured protein stability index for SGGQTSWDSGCLAPPSTRTSHSLP [PLEKHN1] please.
# output 4.1

# input Tell me measured protein stability index for LDTVEEVLSVSKILHIPQVTKLCV [KLHL14] please.
# output 2.35

# input Tell me measured protein stability index for EMAATPAGFAQLTHLLMGLAGGKL [HDAC6] please.
# output 2.26

# input Tell me measured protein stability index for EERSPSFGEDYYGPSRSRHRRRSR [CLK3] please.
# output 5.32

# input Tell me measured protein stability index for HGQLDDLIFIFYKNGLPSPERSYV [PPEF2] please.
# output 2.88

# input Tell me measured protein stability index for TVIFYGADSEQADIARMLYKDTCH [ZMYND11] please.
# output 2.28

# input Tell me measured protein stability index for SSCVKILLDHNANIDIQNGFLLRY [ASB7] please.
# output 2.47

# input Tell me measured protein stability index for LLVSLVTTVVVFVASMVLGECRQM [CLCN6] please.
# output 3.02

# input Tell me measured protein stability index for YLGLVRTHINAVVAKIQAKIPGAK [RTN1] please.
# output 2.35

# input Tell me measured protein stability index for HKRAIMPYGVYKKQQKDPSEEAAV [ATE1] please.
# output 4.3
